Origin of measurements: PubChem BioAssay

- experimental-protocol: S. cerevisiae growth inhibition in permissive medium (OD615), pilot counter-assay for S. cerevisiae lifespan shortening project, permissive growth control (AID 705)
- condition-details: OD615, 24 h, at 10 µM, active compounds read high
recorded-endpoint: growth inhibition (%)
Provide the reading as a plain figure in %.

Lookup: Which growth inhibition value is on record for CCC1CCCCN1C(=O)CSc1nnc(-c2ccc(Cl)cc2)o1 (stereo not drawn) ?
Found: 0.365

Lookup: Which growth inhibition value is on record for "O=C(Nc1cnn(Cc2ccc(Cl)cc2Cl)c1)c1noc2c1CCCC2" ?
Found: 2.94

Lookup: Which growth inhibition value is on record for "CCN1C(=O)c2cccc3c(N)ccc1c23" ?
Found: -0.755

Lookup: Which growth inhibition value is on record for "COc1cc(OC)c(NS(=O)(=O)c2coc(C(N)=O)c2)cc1Cl" ?
Found: -4.63

Lookup: Which growth inhibition value is on record for C=CCOC(=O)C1=C(C)N(C)C(=O)NC1c1cc2c(cc1Br)OCO2 (stereo not drawn) ?
Found: 0.155

Lookup: Which growth inhibition value is on record for "Cc1cc(Nc2ccc(C)c(Br)c2)n2nc(C)nc2n1" ?
Found: -12.9

Lookup: Which growth inhibition value is on record for "CSc1ccccc1NC(=O)c1cnc2n(c1=O)CCS2" ?
Found: -10.6

Lookup: Which growth inhibition value is on record for "O=C(c1cc2ccccc2oc1=O)N1CCN(c2ccc(N3CCOCC3)nn2)CC1" ?
Found: 5.29

Lookup: Which growth inhibition value is on record for "CCCN1CCN(C(=O)c2cn(CC(C)C)c(=O)c3cc(OC)c(OC)cc23)CC1" ?
Found: -19.2

Lookup: Which growth inhibition value is on record for CCOc1ccc(N2C(=O)CC(N3CCN(C4CCc5ccccc5C4)CC3)C2=O)cc1 (stereo not drawn) ?
Found: 2.08

Lookup: Which growth inhibition value is on record for "Cc1ccc(OCc2nc(-c3ccccn3)no2)c(Br)c1" ?
Found: 1.26

Lookup: Which growth inhibition value is on record for "O=C(CCS(=O)(=O)c1cccc2nsnc12)NCc1ccccc1" ?
Found: -12.7

Lookup: Which growth inhibition value is on record for "Cc1ccc(S(=O)(=O)N2CCOCC2)cc1C(=O)Nc1nc(-c2cccnc2)cs1" ?
Found: -14.2

Lookup: Which growth inhibition value is on record for O=C1NCC2=C1C(c1ccc(Br)cc1)Nc1ccccc1N2 (stereo not drawn) ?
Found: -14.3

Lookup: Which growth inhibition value is on record for CC1Cc2nc(SCC(=O)Nc3ccc4c(c3)OCO4)n(CCc3ccccc3)c(=O)c2S1 (stereo not drawn) ?
Found: -14

Lookup: Which growth inhibition value is on record for "O=C(Cn1c(=O)[nH]c2ccsc2c1=O)NC1CCCCCC1" ?
Found: -6.35

Lookup: Which growth inhibition value is on record for CCC(Oc1ccccc1)C(=O)Nc1ccccc1OC (stereo not drawn) ?
Found: -1.92

Lookup: Which growth inhibition value is on record for "Cc1oc2c(O)c(O)ccc2c(=O)c1-c1ccccc1" ?
Found: -4.7

Lookup: Which growth inhibition value is on record for COc1ccc(OC)c(C(C)NC=O)c1 (stereo not drawn) ?
Found: -9.25

Lookup: Which growth inhibition value is on record for Cc1ccc(C)c(N2CCN(CCCNC(=O)Cn3cc4c(n3)CCC(C)C4)CC2)c1 (stereo not drawn) ?
Found: 6.12

Lookup: Which growth inhibition value is on record for "O=C(COc1ccccc1)NCc1nnc(SCC(=O)Nc2nccs2)n1-c1ccccc1" ?
Found: -10.1

Lookup: Which growth inhibition value is on record for "Cn1cccc1Cc1nnc(SCC(=O)NCc2ccc(F)cc2)n1-c1ccc(F)cc1" ?
Found: -3.33

Lookup: Which growth inhibition value is on record for "CCCN1CCN(CCCNC(=O)Cn2cc3c(n2)CCCC3)CC1" ?
Found: -3.77

* * *

- experimental-protocol: doxorubicin toxicity protection in MRP-1 cells – H69AR cells, CellTiter-Glo, duplicate, MRP-1 activator project, pilot screen (AID 807);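 also: compound pretreatment 18-22 h then 72 h combined with doxorubicin; 0% = doxorubicin alone and 100% = vehicle without doxorubicin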
- condition-details: H69AR viability with doxorubicin, CellTiter-Glo luminescence; at 10 µM; active compounds read high
What viability increase was measured for each of the following?
Provide the reading as a plain figure in %.

Lookup: Which viability increase value is on record for "Cc1ccc(Nc2cc(C)nc3nc(C)nn23)c(C)c1" ?
Found: -3.9

Lookup: Which viability increase value is on record for CC(C)c1ncc(C(O)c2cccc3ccccc23)n1C (stereo not drawn) ?
Found: -0.83

Lookup: Which viability increase value is on record for "CCOc1ccc(NS(=O)(=O)c2cc(Cl)ccc2OC)cc1" ?
Found: -2.64

Lookup: Which viability increase value is on record for "COc1ccc(C)cc1NS(=O)(=O)c1cccc2nonc12" ?
Found: -3.24

Lookup: Which viability increase value is on record for CCOC(=O)C1=C(C)N(C)C(=O)NC1c1cccc(O)c1 (stereo not drawn) ?
Found: -0.55

Lookup: Which viability increase value is on record for "O=C(CCCCC(=O)N1CCN(c2ccccc2)CC1)N1CCN(c2ccccc2)CC1" ?
Found: 0.82

Lookup: Which viability increase value is on record for "Clc1ccc(-c2nnc(SCc3nc(-c4ccccc4)no3)o2)cc1" ?
Found: -3.34

Lookup: Which viability increase value is on record for "O=C(O)c1cccc2c1C(=O)N(C1CCCCC1)C2" ?
Found: -1.27

Lookup: Which viability increase value is on record for "Cc1ccc(-n2c3c(cc(C(=O)NCCCN4CCOCC4)c2=O)C(=O)CC(C)(C)C3)cc1" ?
Found: -1.54

Lookup: Which viability increase value is on record for Cc1ccccc1OCc1nnc2n1CC(C)S2 (stereo not drawn) ?
Found: 0.12

Lookup: Which viability increase value is on record for CCOC(=O)C1CCN(C(c2cccc(OC)c2)c2sc3nc(C)nn3c2O)CC1 (stereo not drawn) ?
Found: -1.96

Lookup: Which viability increase value is on record for "CC(=O)N(C(C)=O)c1ncc2c([nH]c3ccccc32)c1C#N" ?
Found: -7.26

Lookup: Which viability increase value is on record for "Cc1ccc(Oc2ccccc2)c(NC=O)c1" ?
Found: -3.07

Lookup: Which viability increase value is on record for CC1=C(C(=O)OC2CCCCC2)C(c2ccco2)C2=C(CC(C)(C)CC2=O)N1 (stereo not drawn) ?
Found: -7.87

Lookup: Which viability increase value is on record for "COC(=O)CCCCCc1ccc(C(C)=O)s1" ?
Found: 0.73

Lookup: Which viability increase value is on record for "N#Cc1nc(-c2ccc(F)cc2)oc1NCCN1CCOCC1" ?
Found: -2.06

Lookup: Which viability increase value is on record for O=C(Nc1cccc(F)c1)C1C2C=CC3(CN(CCCN4CCOCC4)C(=O)C13)O2 (stereo not drawn) ?
Found: 0.8

Lookup: Which viability increase value is on record for "CCOC(=O)c1sc2nc(NC(=O)c3cccs3)sc2c1C" ?
Found: -1.92

Lookup: Which viability increase value is on record for "CCOC(=O)Cn1c(CCC(=O)O)ccc1-c1ccc(F)cc1" ?
Found: -2.3

Lookup: Which viability increase value is on record for "COc1ccc(-n2c(Cc3cccn3C)nnc2SCC(=O)Nc2cccc(Cl)c2)cc1" ?
Found: -1.93

Lookup: Which viability increase value is on record for COc1ccc(C2C(C(=O)Nc3cccnc3)=C(C)Nc3nc(-c4cccs4)nn32)cc1OC (stereo not drawn) ?
Found: -1.12

Lookup: Which viability increase value is on record for "CCc1cc(=O)n2[nH]c(C)c(-c3ccccc3OC)c2n1" ?
Found: -3.04

Lookup: Which viability increase value is on record for Cc1ccc(C)c(NC(=O)C2CC=CCC2C(=O)O)c1 (stereo not drawn) ?
Found: -0.5

* * *

What Her2 level was measured for each of the following?
- target-under-test: Receptor tyrosine-protein kinase erbB-2 (Homo sapiens)
- experimental-protocol: Her2 expression decrease, cell viability multiplex – SKBR3 breast tumor cells, AlphaScreen, ATP viability, primary screen (AID 461);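 also: lower value means less Her2 protein in the cells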
- condition-details: 18-24 h, at 10 µM, active compounds read low
Provide the reading as a plain figure in %.

Lookup: Which Her2 level value is on record for "Cc1cc2nc(-c3ccco3)cc(C(F)(F)F)n2n1" ?
Found: 90

Lookup: Which Her2 level value is on record for COc1cc(NC(=O)C2C3C=CC(C3)C2C(=O)O)c(OC)cc1Cl (stereo unspecified) ?
Found: 95

Lookup: Which Her2 level value is on record for "CCOC(=O)N1CCC(NC(=O)CN2C(=O)CCSc3ccccc32)CC1" ?
Found: 97.5

Lookup: Which Her2 level value is on record for CCOC(=O)C(CC)n1nc(C)n2c(cc3sccc32)c1=O (stereo unspecified) ?
Found: 102

Lookup: Which Her2 level value is on record for CC1CC(C)CN(Cc2nc3c(c(=O)n(C)c(=O)n3C)n2Cc2ccccc2Cl)C1 (stereo unspecified) ?
Found: 104

Lookup: Which Her2 level value is on record for "O=C(c1ccc2nc(N3CCOCC3)sc2c1)N1CCCC1" ?
Found: 96
